// data source = patent US20150352108A1

Target: TBK1 (Homo sapiens)
Construct: His-tag; made in house; host or cells: Sf9 insect cells
Sequence (Q9UHD2 whole entry): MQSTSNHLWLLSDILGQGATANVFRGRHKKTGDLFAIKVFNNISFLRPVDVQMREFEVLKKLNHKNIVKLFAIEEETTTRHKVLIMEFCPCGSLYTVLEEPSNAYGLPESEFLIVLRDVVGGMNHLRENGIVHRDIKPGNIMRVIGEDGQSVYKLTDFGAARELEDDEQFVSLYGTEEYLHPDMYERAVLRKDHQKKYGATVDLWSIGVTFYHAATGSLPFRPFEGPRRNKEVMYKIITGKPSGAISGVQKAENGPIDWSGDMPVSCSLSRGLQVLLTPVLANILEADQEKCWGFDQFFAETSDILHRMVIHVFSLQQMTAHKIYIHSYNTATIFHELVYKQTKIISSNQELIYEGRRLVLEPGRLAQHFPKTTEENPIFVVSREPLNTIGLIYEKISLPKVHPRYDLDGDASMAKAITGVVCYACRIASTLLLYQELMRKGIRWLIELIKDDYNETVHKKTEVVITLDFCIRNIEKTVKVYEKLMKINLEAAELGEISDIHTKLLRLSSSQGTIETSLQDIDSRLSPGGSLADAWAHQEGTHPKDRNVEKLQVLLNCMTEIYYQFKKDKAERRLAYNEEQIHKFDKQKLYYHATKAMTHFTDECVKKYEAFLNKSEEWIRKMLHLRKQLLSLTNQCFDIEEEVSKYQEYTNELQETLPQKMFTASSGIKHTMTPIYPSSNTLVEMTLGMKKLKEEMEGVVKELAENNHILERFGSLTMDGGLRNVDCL
Experiment: In-vitro TBK1 kinase assay ([γ33]ATP filter-plate)
Type: biochemical
Conditions: text bins; read-out: IC50 for inhibition of the kinase activity of TBK1
pIC50: −log10 of the molar value.
metric: pIC50

Use the examples below as a reference point.
{"columns": ["molecule", "pIC50"],
 "data": [
  ["N#Cc1cc(-c2ccnc(Nc3ccc(N4CCOCC4)cc3)n2)ccc1NC(=O)CN [compound 568]", "7.00 to 8.00"],
  ["CC(C)CC(=O)Nc1ccc(-c2ccnc(Nc3ccc(N4CCOCC4)cc3)n2)cc1C#N [Example 1]", "> 8.00"],
  ["N#Cc1cc(-c2ccnc(Nc3ccc(N4CCOCC4)cc3)n2)ccc1OC1CCN(C(=O)CCO)CC1 [Example 215]", "> 8.00"]
]}

Below: the item to evaluate.
Supply reported pIC50 belonging to this molecule: COc1cc(NC(=O)N[C@H]2CC[C@H](O)CC2)cc(Nc2nccc(-c3ccc(OC)c(C#N)c3)n2)c1 [Example 280] 7.00 to 8.00
